Origin of the recorded values: patent US20140335568

- System: scFv clone C1 (anti-dsDNA d(AT)4 recombinant antibody) (synthetic (Tomlinson I/J human scFv phage library))
- assay_text: ELONA
- condition_parameters: ELISA, varying scFv with 25 pmol immobilized dsDNA, single site isotherm; 5xSSCT immobilization, RT

sequence_input: AAAAGACTCACTGTTTGTCTGTCGTTCTAGGATATATAT / ATATATATCCTAGAACGACAGACAAACAGTGAGTC [35 bp dsDNA epitope (ssDNA:ssDNA')]
IC50 / µM: 0.238
